- Tested on: MGC-803
- measurement_description: cells
- stated_conditions: Homo sapiens, MGC-803, 72 h
- Description: Antiproliferative activity against human MGC-803 cells measured after 72 hrs by MTT assay
pIC50: −log10 of the molar value.
property_measured: pIC50

{"columns": ["given_smiles", "target_or_system", "observed_measurement"],
 "data": [
  ["Cc1ccc(Nc2nc(SCC(=O)N3CCN(CCOc4no[n+]([O-])c4S(=O)(=O)c4ccccc4)CC3)nc(-c3ccccc3)c2C#N)cc1", "MGC-803", 5.87],
  ["N#Cc1c(Nc2cccc(F)c2)nc(SCC(=O)N2CCN(CCOc3no[n+]([O-])c3S(=O)(=O)c3ccccc3)CC2)nc1-c1ccccc1", "MGC-803", 5.97],
  ["CCOc1ccccc1Nc1nc(SCC(=O)N2CCN(CCOc3no[n+]([O-])c3S(=O)(=O)c3ccccc3)CC2)nc(-c2ccccc2)c1C#N", "MGC-803", 5.84]
]}
